The values you see were collected from ChEMBL document CHEMBL5104108.

Assay: MRT (0 to 48 hrs) in Sprague-Dawley rat at 6 mg/kg, IG measured HPLC analysis
Type: ADME, organism-based
Details: in vivo, po
parameter: MRT last
Report field: quantity (unit follows the number).

For the compound `O=C(Nc1ccc(C(F)(F)F)cc1)Nc1cccc(CNc2nccnc2Cl)c1` , what MRT last is on record?
9.17 h

* * *

Assay: Cmax in Sprague-Dawley rat at 12 mg/kg, IG measured HPLC analysis
Assay type: ADME, organism-based
Parameters: dose 12 mg/kg, route ig
Settings: in vivo, po
Below, each entry is listed with its recorded Cmax.
Record the result as a number with its unit.

substanceSmiles | Cmax
CNC(=O)c1cc(Oc2ccc(NC(=O)Nc3ccc(Cl)c(C(F)(F)F)c3)c(F)c2)ccn1 | 3100 ng/mL

Attention now turns to another entry.
For the compound `O=C(Nc1ccc(C(F)(F)F)cc1)Nc1cccc(CNc2nccnc2Cl)c1` , what Cmax is on record?
3360 ng/mL
